- assayText: qHTS for inhibitors of Vif-A3G interactions: Cherry picks; further: nearly all actives have a fitted effect of over 80% in size
- conditionLabel: HeLa A3G-eYFP + Vif (tagged APOBEC3G with the HIV-1 protein that degrades it), 24 h; eYFP fluorescence increase; series mostly up to 36.9 µM
Out of some 2,100 compounds screened, about 650 (31%) were called active. Roughly 16% stayed inconclusive and do not appear here. The call rests on the fitted dose curve; in most records, active means well fitted inhibition curve with a large enough effect; inconclusive means small, poorly fitted or top-dose-only effect; inactive means flat fitted curve, though single readings scatter. Some of the results follow.
Tick one outcome: active, inactive

Consider the worked cases shown below.
[
  {
    "compound": "CCCNC(=O)c1ccccc1NC(=O)c1ccc2c(c1)NC(=O)C(C)S2 (centres undefined)",
    "classAssignment": "inactive"
  },
  {
    "compound": "CC[n+]1c(/C=C/N(C)c2ccccc2)oc2ccc(F)cc21",
    "classAssignment": "active"
  }
]

Request: Which result was noted for this compound in the test: Clc1ccc2c(c1)C(C1=NCCN1)c1ccccc1CS2 (centres undefined)
Result: inactive

Request: Please do the same for CCNc1ccc(Br)cc(C(=O)/C=C/c2ccc3c(c2)OCO3)c1=O as well.
Result: active

Request: Another compound to check: Cc1ccc(-c2nc3ccccc3o2)cc1NC(=S)NC(=O)/C=C/c1ccco1
Result: inactive

Request: Again, but for CC(=O)N1CCc2nc3sc(C(=O)c4ccc(F)cc4)c(N)c3c(C(F)(F)F)c2C1
Result: active

Request: Item: COc1cc2c(cc1OC)C1=CC(=O)C(=O)N1C(C)(C)C2
Result: active

Request: Likewise for COc1cc(/C=N/Nc2ccc(Cl)nn2)cc(OC)c1O ?
Result: inactive

Request: Also Cc1c(C(=O)C(=O)N2CCCc3ccccc32)c2ccccc2n1C , if possible.
Result: inactive

Request: Next compound: CC[n+]1ccc(/C=C2\Sc3ccccc3N2CCCS(=O)(=O)[O-])c2ccccc21
Result: active

Request: Entry Cc1ccc2nc3sc(C(=O)N4CCCc5ccccc54)c(N)c3cc2c1 please
Result: active

Request: Cc1cccc2cc3c(N)c(C(=O)N4CCCc5ccccc54)sc3nc12 , same question.
Result: active

Request: Try this compound next: O=C(N/N=C/c1ccc2c(c1)OCO2)c1cccc2ccccc12
Result: inactive

Request: Please answer likewise for COc1cc2c(cc1OC)C(C)N(C(=O)c1cc(Cl)nc(Cl)c1)CC2 (centres undefined)
Result: inactive

Request: Now this one: COc1cccc(CNCCSc2nnnn2C)c1OCc1ccc(F)cc1
Result: inactive
